# experiment-description: Biotin-PGE2 ELISA (PGE2-biotinamide binding to captured IgG)
# assay-context: Biotin-PGE2 0.1 μM
Entries and their Binding to PGE2-Biotinamide (OD450) values follow.

In the examples that follow, each entry is paired with its recorded Binding to PGE2-Biotinamide (OD450).
- L11: human anti-PGE2 antibody from PROfusion mRNA display; VH SEQ ID NO 25, VL SEQ ID NO 29 (antibody, V domains shown) VH: EVQLVQSGPELKKPGTSVKVSCKASGYTLTTYAMNWVRQAPGQGLEWMGWIDTSTGNPTYAPGFLGRFVFSLDTSLSTTYLQISSLKPDDTAVYYCARSSHTRPGDFWGQGTLVTVSS VL: QSGLTQPPSVSGTPGQRVTISCSGSESNVGTNSVNWYQQLPGAAPRLLIRGNSDRPSGVPDRFSASKSGTSASLAISRLQSEDEADYFCGACDGRLSGLYVFGTGTKVTVL: 0.04
- L21: human anti-PGE2 antibody from PROfusion mRNA display; VH SEQ ID NO 33, VL SEQ ID NO 36 (antibody, V domains shown) VH: EVQLVQSGSELKKPGTSVKVSCKASGYTLTTYAMNWVRQAPGQGLEWMGWIGTSTGNPTYAQGFTGRFVFSLDTSVNTAHLQIYSLKAEDTALYYCARSSLTRPADYWGQGTLVTVSS VL: QSGLTQPPSVSGAPGQRVTISCFGSSSNIGAGYDVHWYQQLPGAAPKLLIFGNNNRPSGVPDRFSGSKSGTSASLAITGLQAEDEADYYCQSCDSSLSGAVFGTGTKVTVL: 0.10

Here is the next item to consider.
Ask | Dear colleague, please send me the reported Binding to PGE2-Biotinamide (OD450) for K3A: human anti-PGE2 antibody from PROfusion mRNA display; VH SEQ ID NO 13, VL SEQ ID NO 17 (antibody, V domains shown) VH: EVQLVQSGAETKKPGASVEVSCKASGYSFTEYGISWVRQAPGQGPEWMGCISPYNGKLHYAQEFQGRVTMTTGTSTNTAYMELGSLRSDDTAVYYCARGGFSFYDSSGYYYVTDHWGQGTLVTVSS VL: DIRLTQSPSSLSASVGDRVTITCRASQSIGSYLNWYQQKSGKAPKLLIYAASKLQSGVPSRFSGSGFGTDFTLTISSLQPEDSATYYCQQSDTTPFTFGQGTKLEIKR when you can.
Reply | 0.22
